Cited source: patent US20250388582A1

experimental-system: human GST-PIKFYVE (Homo sapiens, UniProt Q9Y2I7)
Construct: GST; purchased Carna biosciences 11-118
measurement-protocol: ADP-Glo kinase assay, enzyme inhibition activity against human PIKFYVE (Carna biosciences)
Type: biochemical
condition-set: inhibitory activity at final compound concentration 10 nM; 1 hour at room temperature
Method: The enzyme inhibition activity values for the compounds according to Examples against human PIKFYVE were calculated using the ADP-Glo™ kinase assay service of Carna biosciences, Inc. The enzyme activity evaluation method provided by Carna biosciences Inc., is shown below. Enzyme inhibition activity was evaluated by reacting the compounds according to Examples with human GST-PIKFYVE (11-118, Carna biosciences), which was purified using glutathione Sepharose chromatography. […]
# ADP-Glo kinase assay (%, 10 nM) per entry
Enter the number, and then the unit.

molecule	experimental-system	observable	recorded-measurement
Cc1cccc(/C=N/Nc2nc(N3CCOCC3)nc3c2ncn3CC(=O)c2ccccn2)c1 [Example 23]	human GST-PIKFYVE (Homo sapiens, UniProt Q9Y2I7)	ADP-Glo kinase assay (%, 10 nM)	90.82%
Cc1cccc(/C=N/n2c(C)nc3c(Nc4ccncc4)nc(N4CCOCC4)nc32)c1 [Example 207]	human GST-PIKFYVE (Homo sapiens, UniProt Q9Y2I7)	ADP-Glo kinase assay (%, 10 nM)	75.57%
COc1ccc(-n2cnc3c(N/N=C/c4cccc(C)c4)nc(N4CCOCC4)nc32)nc1 [Example 108]	human GST-PIKFYVE (Homo sapiens, UniProt Q9Y2I7)	ADP-Glo kinase assay (%, 10 nM)	80.35%

# ---- query molecule ----
ADP-Glo kinase assay (%, 10 nM) recorded for this molecule, Cc1cccc(/C=N/Nc2nc(N3CCOCC3)nc3c2ncn3-c2cccc(N(C)C)c2)c1 [Example 202] , is 80.47%

---

experimental-system: human GST-PIKFYVE (Homo sapiens)
Construct: GST; purchased Carna biosciences 11-118
measurement-protocol: ADP-Glo kinase assay, enzyme inhibition activity against human PIKFYVE (Carna biosciences)
Type: biochemical
condition-set: inhibitory activity at final compound concentration 10 nM; 1 hour at room temperature
observable: ADP-Glo kinase assay (%, 10 nM) (%)
Quick note: give the figure in %, leave out the unit.

The following compounds have reported results that may help.
mol-smiles	observable	recorded-measurement
Cc1cccc(/C=N/Nc2nc(N3CCOCC3)nc3c2ncn3CC(=O)c2ccccc2C)c1	ADP-Glo kinase assay (%, 10 nM)	86.29
C(=N\Nc1nc(N2CCOCC2)nc2c1ncn2-c1ccccc1)/c1c[nH]c2ccccc12	ADP-Glo kinase assay (%, 10 nM)	86.76
Cc1cccc(/C=N/Nc2nc(N3CCOCC3)nc3c2ncn3-c2cccc(O)c2)c1	ADP-Glo kinase assay (%, 10 nM)	91.40
Cc1cccc(/C=N/Nc2nc(N3CCOCC3)nc3c2ncn3CC(=O)c2ccc(C#N)cc2)c1	ADP-Glo kinase assay (%, 10 nM)	70.11
COc1cccc(-n2c(C)nc3c(N/N=C/c4cccc(C)c4)nc(N4CCOCC4)nc32)c1	ADP-Glo kinase assay (%, 10 nM)	77.75

Entry Cc1cccc(/C=N/Nc2nc(N3CCOCC3)nc3c2nc(C)n3-c2ccccc2)c1 under human GST-PIKFYVE (Homo sapiens) had ADP-Glo kinase assay (%, 10 nM) of 73.72

Entry Cc1cccc(/C=N/Nc2nc(N3CCOCC3)nc3c2ncn3CC(=O)c2cccc(OC(F)(F)F)c2)c1 under human GST-PIKFYVE (Homo sapiens) had ADP-Glo kinase assay (%, 10 nM) of 54.37

Entry Cc1cccc(CNn2cnc3c(Nc4ccncc4)nc(N4CCOCC4)nc32)c1 under human GST-PIKFYVE (Homo sapiens) had ADP-Glo kinase assay (%, 10 nM) of 53.14

---

experimental-system: human GST-PIKFYVE (Homo sapiens, UniProt Q9Y2I7)
Construct: GST; purchased Carna biosciences 11-118
measurement-protocol: ADP-Glo kinase assay, enzyme inhibition activity against human PIKFYVE (Carna biosciences)
Format: biochemical
condition-set: inhibitory activity at final compound concentration 10 nM; 1 hour at room temperature
observable: ADP-Glo kinase assay (%, 10 nM) (%)
Quick note: give the figure in %, leave out the unit.

The following compounds have reported results that may help.
compound	ADP-Glo kinase assay (%, 10 nM), %
Cc1cccc(-c2ccn(-c3nc(N4CCOCC4)nc4c3ncn4-c3ccncc3)n2)c1 [Example 107]	82.62
Cc1cccc(/C=N/Nc2nc(N3CCOCC3)nc3c2ncn3-c2ccc(C)nc2)c1 [Example 110]	88.60
Cc1cccc(-c2ccn(-c3nc(N4CCOCC4)nc4c3ncn4-c3ccccc3)n2)c1 [Example 136]	78.65

# ---- query compound ----
ADP-Glo kinase assay (%, 10 nM) recorded for this compound, Cc1cccc(/C=N/Nc2nc(N3CCOCC3)nc3c2ncn3CC(=O)c2cccc(C)c2)c1 [Example 41] , is 76.69

---

experimental-system: PIKFYVE (Homo sapiens, UniProt Q9Y2I7)
Sequence (Q9Y2I7 whole entry): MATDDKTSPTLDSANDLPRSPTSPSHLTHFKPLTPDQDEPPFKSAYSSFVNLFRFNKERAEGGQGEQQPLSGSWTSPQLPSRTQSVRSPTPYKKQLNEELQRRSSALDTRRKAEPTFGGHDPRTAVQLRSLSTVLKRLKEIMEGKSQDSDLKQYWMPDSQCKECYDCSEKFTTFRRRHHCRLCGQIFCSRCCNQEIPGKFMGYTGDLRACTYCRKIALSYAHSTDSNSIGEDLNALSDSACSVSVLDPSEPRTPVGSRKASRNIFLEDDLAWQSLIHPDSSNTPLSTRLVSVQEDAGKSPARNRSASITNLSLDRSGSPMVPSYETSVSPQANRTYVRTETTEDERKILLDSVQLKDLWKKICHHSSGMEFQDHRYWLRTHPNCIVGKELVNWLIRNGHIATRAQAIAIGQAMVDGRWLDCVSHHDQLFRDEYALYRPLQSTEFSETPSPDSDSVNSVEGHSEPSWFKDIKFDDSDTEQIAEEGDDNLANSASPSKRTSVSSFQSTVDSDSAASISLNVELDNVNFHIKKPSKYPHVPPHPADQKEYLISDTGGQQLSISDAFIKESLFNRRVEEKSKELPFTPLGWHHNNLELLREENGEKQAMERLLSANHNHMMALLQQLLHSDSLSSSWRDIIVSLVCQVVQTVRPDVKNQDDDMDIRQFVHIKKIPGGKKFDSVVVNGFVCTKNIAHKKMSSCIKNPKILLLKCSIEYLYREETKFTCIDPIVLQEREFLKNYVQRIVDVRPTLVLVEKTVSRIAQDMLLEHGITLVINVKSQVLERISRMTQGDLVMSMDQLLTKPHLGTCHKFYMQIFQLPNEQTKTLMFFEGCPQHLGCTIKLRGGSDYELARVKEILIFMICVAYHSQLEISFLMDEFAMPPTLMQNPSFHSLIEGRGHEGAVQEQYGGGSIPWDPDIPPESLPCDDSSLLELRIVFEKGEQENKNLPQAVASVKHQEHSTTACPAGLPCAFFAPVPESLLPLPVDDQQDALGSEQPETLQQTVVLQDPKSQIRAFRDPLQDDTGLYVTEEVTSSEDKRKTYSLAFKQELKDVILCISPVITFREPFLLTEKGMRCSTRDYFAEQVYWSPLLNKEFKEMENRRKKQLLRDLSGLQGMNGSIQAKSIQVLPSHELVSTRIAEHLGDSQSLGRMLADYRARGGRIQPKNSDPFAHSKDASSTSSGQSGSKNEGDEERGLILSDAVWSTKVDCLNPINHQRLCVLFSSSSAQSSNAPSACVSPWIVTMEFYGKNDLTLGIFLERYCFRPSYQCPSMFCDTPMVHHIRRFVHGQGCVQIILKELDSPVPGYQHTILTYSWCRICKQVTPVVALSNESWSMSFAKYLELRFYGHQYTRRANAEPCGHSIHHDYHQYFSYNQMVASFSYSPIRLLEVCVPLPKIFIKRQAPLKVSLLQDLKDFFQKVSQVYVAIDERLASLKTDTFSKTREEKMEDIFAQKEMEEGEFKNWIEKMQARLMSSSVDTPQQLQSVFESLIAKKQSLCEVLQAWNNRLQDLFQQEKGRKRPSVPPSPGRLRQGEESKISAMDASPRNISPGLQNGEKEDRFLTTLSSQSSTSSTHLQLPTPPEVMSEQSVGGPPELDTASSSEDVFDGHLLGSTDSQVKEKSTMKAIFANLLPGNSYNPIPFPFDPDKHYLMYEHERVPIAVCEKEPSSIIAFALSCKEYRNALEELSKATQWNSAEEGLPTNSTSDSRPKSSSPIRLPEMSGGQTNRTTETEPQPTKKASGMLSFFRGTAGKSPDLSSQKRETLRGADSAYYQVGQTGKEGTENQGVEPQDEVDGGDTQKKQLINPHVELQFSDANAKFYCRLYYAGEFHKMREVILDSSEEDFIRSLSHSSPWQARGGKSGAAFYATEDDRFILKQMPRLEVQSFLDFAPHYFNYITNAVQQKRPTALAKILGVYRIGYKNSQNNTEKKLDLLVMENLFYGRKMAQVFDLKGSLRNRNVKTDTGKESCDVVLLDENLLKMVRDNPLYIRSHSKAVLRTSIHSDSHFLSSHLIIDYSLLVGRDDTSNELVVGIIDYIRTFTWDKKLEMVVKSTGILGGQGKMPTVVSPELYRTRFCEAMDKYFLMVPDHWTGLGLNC
measurement-protocol: NanoBRET TE Intracellular Kinase Assay, interaction of PIKFYVE and compounds in HEK293 cells
condition-set: IC50 class from BRET; HEK293 cells expressing PIKFYVE-NanoLuc; 2 hours incubation
pIC50: −log10 of the molar value.
# pIC50 per entry

The following compounds have reported results that may help.
mol-smiles	recorded-measurement
Cc1cccc(-c2ccn(-c3nc(N4CCOCC4)nc4c3ncn4CC(=O)c3ccccn3)n2)c1	≥ 8.00
Cc1cccc(/C=N/Nc2nc(N3CCOCC3)nc3c2ncn3CC(=O)c2ccc(C#N)cc2)c1	7.70 to 8.00
COc1ccc(-n2cnc3c(N/N=C/c4cccc(C)c4)nc(N4CCOCC4)nc32)cc1	≥ 8.00
Cc1cccc(/C=N/Nc2nc(N3CCOCC3)nc3c2ncn3CC(=O)c2ccccc2)c1	7.70 to 8.00
Cc1ccc(C(=O)Cn2cnc3c(N/N=C/c4cccc(C)c4)nc(N4CCOCC4)nc32)cc1	≥ 8.00

Entry Cc1cccc(/C=N/Nc2nc(N3CCOCC3)nc3c2ncn3-c2cccc(O)c2)c1 under PIKFYVE (Homo sapiens, UniProt Q9Y2I7) had pIC50 of ≥ 8.00

---

experimental-system: human GST-PIKFYVE (Homo sapiens, UniProt Q9Y2I7)
Construct: GST; purchased Carna biosciences 11-118
measurement-protocol: ADP-Glo kinase assay, enzyme inhibition activity against human PIKFYVE (Carna biosciences)
Assay type: biochemical
condition-set: inhibitory activity at final compound concentration 10 nM; 1 hour at room temperature
# ADP-Glo kinase assay (%, 10 nM) per entry
Quick note: give the figure in %, leave out the unit.

The following molecules have reported results that may help.
mol-smiles	experimental-system	recorded-measurement
Cc1cccc(/C=N/Nc2nc(N3CCOCC3)nc3c2ncn3-c2cccc(F)c2)c1	human GST-PIKFYVE (Homo sapiens, UniProt Q9Y2I7)	89.94
Cc1cccc(/C=N/Nc2nc(N3CCOCC3)nc3c2ncn3CC(=O)c2ccc(F)cn2)c1	human GST-PIKFYVE (Homo sapiens, UniProt Q9Y2I7)	70.90
Cc1cccc(/C=N/Nc2nc(N3CCOCC3)nc3c2ncn3C2CCN(C(=O)c3ccncc3)CC2)c1	human GST-PIKFYVE (Homo sapiens, UniProt Q9Y2I7)	66.78
Cc1ccccc1/C=N/n1cnc2c(Nc3ccncc3)nc(N3CCOCC3)nc21	human GST-PIKFYVE (Homo sapiens, UniProt Q9Y2I7)	68.47
Cc1cccc(/C=N/Nc2nc(N3CCOCC3)nc3c2ncn3-c2cccnc2C)c1	human GST-PIKFYVE (Homo sapiens, UniProt Q9Y2I7)	79.21

ADP-Glo kinase assay (%, 10 nM) recorded for this molecule, COc1cccc(C(=O)Cn2cnc3c(N/N=C/c4cccc(C)c4)nc(N4CCOCC4)nc32)c1 , is 82.96

ADP-Glo kinase assay (%, 10 nM) recorded for this molecule, COc1ccc(-n2c(C)nc3c(N/N=C/c4cccc(C)c4)nc(N4CCOCC4)nc32)cc1 , is 79.72

---

experimental-system: PIKFYVE (Homo sapiens)
measurement-protocol: NanoBRET TE Intracellular Kinase Assay, interaction of PIKFYVE and compounds in HEK293 cells
condition-set: IC50 class from BRET; HEK293 cells expressing PIKFYVE-NanoLuc; 2 hours incubation
pIC50: −log10 of the molar value.
observable: pIC50

mol-smiles	pIC50
Cc1cccc(/C=N/n2cnc3c(Nc4cccnc4)nc(N4CCOCC4)nc32)c1	7.70 to 8.00
Cc1cccc(/C=N/Nc2nc(N3CCOCC3)nc3c2ncn3-c2cccc(C)n2)c1	≥ 8.00
Cc1cccc(-c2ccn(-c3nc(N4CCOCC4)nc4c3ncn4-c3ccncc3)n2)c1	≥ 8.00
Cc1cccc(/C=N/Nc2nc(N3CCOCC3)nc3c2ncn3-c2ccc(Cl)cc2)c1	≥ 8.00

pIC50 recorded for this compound, Cc1cccc(/C=N/Nc2nc(N3CCOCC3)nc3c2ncn3CC(=O)c2ccccn2)c1 , is ≥ 8.00

pIC50 recorded for this compound, Cc1cccc(/C=N/Nc2nc(N3CCOCC3)nc3c(-c4c(C)noc4C)cccc23)c1 , is 7.52 to 7.70
